Field: clearance. Provide a value for each of the compounds that follow.
# EXPERIMENT_NOTES: Clearance in CD1 mouse at 5 mg/kg, iv
# Assay type: ADME, organism-based
# Design: dose 5 mg/kg, route intravenous
# CONDITION_LABEL: in vivo
Put your answer as a value accompanied by its unit after it.

Given Cl.NCc1ccc(Oc2ccc3c(c2)B(O)OC3)c(F)c1 , state its recorded clearance.
38 mL/min/kg

Given Cl.NCc1ccc(Oc2ccc3c(c2)B(O)OC3)c(Cl)c1 , state its recorded clearance.
36.8 mL/min/kg

----------
# EXPERIMENT_NOTES: AUC in CD1 mouse at 5 mg/kg, iv
# Type: ADME, organism-based
# Design: dose 5 mg/kg, route intravenous
# CONDITION_LABEL: plasma
Field: AUC. Provide a value for each of the compounds that follow.
Put your answer as a value accompanied by its unit after it.

Given Cl.NCc1ccc(Oc2ccc3c(c2)B(O)OC3)c(F)c1 , state its recorded AUC.
1740 ng·h/mL

Given Cl.NCc1ccc(Oc2ccc3c(c2)B(O)OC3)c(Cl)c1 , state its recorded AUC.
2260 ng·h/mL
